Molecular target: T1, cynomolgus monkey PCSK9 (cynomolgus monkey, UniProt A0A7N9D9N8 150-747)
T1 construct: also called cyno PCSK9; cPCSK9
Experiment: FRET, competitor EGFA peptide
pEC50: −log10 of the molar value.
quantityKind: pEC50

binder	quantityKind	recordedResult
2451B06 (designed binder, Anti-PCSK9 Adnectin, His6-tagged; also called 2451B06 (equivalent to 2382D05)) MGVSDVPRDLEVVAATPTSLLISWDAPADGGYGYYRITYGETGGNSPVQEFTVPVSKGTATISGLKPGVDYTITVYAVEFDFPGAGYYHRPISINYRTEIDKPSQHHHHHH	pEC50	7.24
2012A04 (designed binder, Anti-PCSK9 Adnectin, His6-tagged) MGVSDVPRDLEVVAATPTSLLISWRPPSNGHGYYRITYGETGGNSPVQEFTVPVNEGTATISGLKPGVDYTITVYAVEFPFKWSGYYHRPISINYRTEIDKPSQHHHHHH	pEC50	7.15
2382D05 (designed binder, Anti-PCSK9 Adnectin, His6-tagged; Same entry as 2451B06) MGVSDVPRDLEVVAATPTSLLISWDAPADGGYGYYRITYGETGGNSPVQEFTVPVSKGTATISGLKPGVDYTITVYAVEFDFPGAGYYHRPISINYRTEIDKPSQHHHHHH	pEC50	7.24
2013E01 (designed binder, Anti-PCSK9 Adnectin, His6-tagged, unmodified (not PEGylated); also called ATI001081) MGVSDVPRDLEVVAATPTSLLISWVPPSDDYGYYRITYGETGGNSPVQEFTVPIGKGTATISGLKPGVDYTITVYAVEFPWPHAGYYHRPISINYRTEIDKPSQHHHHHH	pEC50	7.90

Data credit: patent US20120094909A1
